Test system: apyrase
procedure details: Screen for apyrase inhibitors (Method 1, in vitro phosphate-release absorbance assay)
Format: biochemical
cond: inhibitor conc at 1 mM stock, 1 hr room temperature, absorbance 630 nm; rounded average of two assay results
// label = yes (1) if % Inhibition of Apyrase is not less than 30%, otherwise no (0)

{"compound": "COc1ccc(NC(=O)c2cccc(S(=O)(=O)Nc3ccc(Cl)cc3)c2)cc1 [I-246]", "target of assay": "apyrase", "assigned class": "yes (1)"}
{"compound": "O=C(NCCC1CCCO1)c1cccc(S(=O)(=O)Nc2ccc(Br)cc2)c1 (stereo not drawn) [I-42]", "target of assay": "apyrase", "assigned class": "no (0)"}
{"compound": "O=C(Nc1nnc(C2CC2)s1)c1cccc(NS(=O)(=O)c2ccccc2)c1 [I-652]", "target of assay": "apyrase", "assigned class": "yes (1)"}
{"compound": "O=C(Nc1cccc(S(=O)(=O)Nc2cccc(C(F)(F)F)c2)c1)c1cc2ccccc2o1 [I-715]", "target of assay": "apyrase", "assigned class": "yes (1)"}
{"compound": "O=C(Nc1ccc(Br)cc1F)c1cccc(S(=O)(=O)N2CCc3ccccc32)c1 [I-470]", "target of assay": "apyrase", "assigned class": "yes (1)"}
{"compound": "COc1ccc(C(=O)Nc2cccc(S(=O)(=O)Nc3nccs3)c2)cc1[N+](=O)[O-] [I-760]", "target of assay": "apyrase", "assigned class": "no (0)"}
{"compound": "O=C(Nc1cccc(C(F)(F)F)c1)c1cccc(NS(=O)(=O)c2ccccc2F)c1 [I-326]", "target of assay": "apyrase", "assigned class": "no (0)"}
{"compound": "CCOc1ccc(NS(=O)(=O)c2ccc(NC(=O)c3cccc(OC(F)F)c3)cc2)cc1 [I-986]", "target of assay": "apyrase", "assigned class": "yes (1)"}
{"compound": "O=C(Nc1cccc([N+](=O)[O-])c1)c1cccc(S(=O)(=O)N2CCc3ccccc32)c1 [I-38]", "target of assay": "apyrase", "assigned class": "no (0)"}
